Measured Kd, listed per entry.
# measured.target: T1, cynomolgus monkey IL-6 (cynomolgus monkey, UniProt P79341 28-212, limits assumed)
# T1 construct: also called HIS-cyIL-6
# assay.text: SPR; purified Fab

{"columns": ["binder", "result.units", "Kd"],
 "data": [
  ["Fab 42H1/36A1 (Fab, V domains shown, VL-shuffled Fab of 18C11) VH: EVQLVESGGGLVQPGGSLRLSCAASGFTFSSYAMSWVRQAPGKGLEWVSAINSGGGSTSYADSVKGRFTISRDNAKNTLYLQMNSLKPEDTAVYYCAKEGDTGWKDPMYDYWGQGTQVTVSS VL: AQSALTQPSALSVTLGQTAKITCQGGSLGTRYAHWYQQKPGQAPVLVIYDDDSRPSGIPERFSGSSSGGRATLTISGAQAEDEGDYYCQSADSSGNASVFGGGTHLTVLG", "pM", 690],
  ["Fab 20A4 (Fab, V domains shown, Fab) VH: EVQLQESGPGLVKPSQTLSLTCTVSGGSITTRYYAWSWIRQPPGKGLEWMGVIDYDGDTYYSPSLKSRTSISWDTSKNQFSLQLSSVTPEDTAVYYCARDPDVVTGFHYDYWGQGTQVTVSS VL: LNFMLTQPPSVSGTLGKTVTISCAGTSSDIGGYNYVSWYQQLPGTAPKLLIHRVSTRASGIPDRFSGSKSGNTASLTISGLRSEDEANYYCASYRNFNNAVFGGGTQLTVLG", "pM", 1700],
  ["Fab 41E10/35B1 (Fab, V domains shown, VL-shuffled Fab of 17F10) VH: EVQLQESGPGLVKPSQTLSLTCTVSGGSIATSYYAWSWIRQPPGKGLEWMGVIDYDGDTYYKPSLKSRTSISRDTSKNQFSLQLSSVTPEDTAVYYCARAGLGDSYYLGTYYAMDYWGKGTLVTVSS VL: QAVLTQPPSMSGTLGKTLTISCNGTSSDIGSGNYVSWYQQLPGTTPKLLIEGVTTRVSGIPDRFSGSKSDNTASLTISGLQSEDEATYYCASYRETNNVVFGGGTHLTVLG", "pM", 340],
  ["Fab 17F10 (Fab, V domains shown, Fab; also called 17F10 pur Fab 68 nM) VH: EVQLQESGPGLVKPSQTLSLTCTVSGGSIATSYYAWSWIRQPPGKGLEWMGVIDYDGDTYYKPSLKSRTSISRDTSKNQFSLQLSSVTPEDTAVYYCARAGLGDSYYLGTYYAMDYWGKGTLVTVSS VL: QAGLTQPPSVSGSPGKTVTISCAGTTSDVGTGNFVSWYQQLPGMAPKLLIYDVNKRASGIADRFSGSKSGNTASLTISGLQSEDEADYYCASYRSLNNVVFGGGTHLTVLG", "pM", 620],
  ["Fab 18C11 (Fab, V domains shown, Fab) VH: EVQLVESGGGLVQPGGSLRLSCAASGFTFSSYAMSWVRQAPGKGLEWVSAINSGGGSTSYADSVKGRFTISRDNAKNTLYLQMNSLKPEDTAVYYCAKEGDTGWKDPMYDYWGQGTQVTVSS VL: QSVVTQPSALSVTLGQTAKITCQGGGLRSSYAHWYQQKPGQAPVLVIYDDDSRPSGIPERFSGSSSGGRATLTISGAQAEDEGDYYCQSADSSGNAAVFGGGTHLTVLG", "pM", 3400]
]}

Where do the numbers come from? From patent US20220073604A1.
